Molecular target: human P2X2/3 receptors (Homo sapiens, UniProt P56373+Q9UBL9)
Construct: expressed in transfected cells; host or cells: human astrocytoma 1321N1 (1312N1 [sic])
Sequence (P56373 1-397): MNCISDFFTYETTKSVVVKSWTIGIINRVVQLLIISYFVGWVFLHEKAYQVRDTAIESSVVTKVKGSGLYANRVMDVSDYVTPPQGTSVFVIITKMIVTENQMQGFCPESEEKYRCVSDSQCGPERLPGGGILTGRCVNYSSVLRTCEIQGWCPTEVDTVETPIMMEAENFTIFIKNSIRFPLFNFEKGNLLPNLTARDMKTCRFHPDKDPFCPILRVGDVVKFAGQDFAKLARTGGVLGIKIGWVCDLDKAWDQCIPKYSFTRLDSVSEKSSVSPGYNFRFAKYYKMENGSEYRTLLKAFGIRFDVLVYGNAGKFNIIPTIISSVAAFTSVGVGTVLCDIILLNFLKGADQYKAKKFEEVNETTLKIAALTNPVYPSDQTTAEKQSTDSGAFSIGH
Sequence (Q9UBL9 1-471): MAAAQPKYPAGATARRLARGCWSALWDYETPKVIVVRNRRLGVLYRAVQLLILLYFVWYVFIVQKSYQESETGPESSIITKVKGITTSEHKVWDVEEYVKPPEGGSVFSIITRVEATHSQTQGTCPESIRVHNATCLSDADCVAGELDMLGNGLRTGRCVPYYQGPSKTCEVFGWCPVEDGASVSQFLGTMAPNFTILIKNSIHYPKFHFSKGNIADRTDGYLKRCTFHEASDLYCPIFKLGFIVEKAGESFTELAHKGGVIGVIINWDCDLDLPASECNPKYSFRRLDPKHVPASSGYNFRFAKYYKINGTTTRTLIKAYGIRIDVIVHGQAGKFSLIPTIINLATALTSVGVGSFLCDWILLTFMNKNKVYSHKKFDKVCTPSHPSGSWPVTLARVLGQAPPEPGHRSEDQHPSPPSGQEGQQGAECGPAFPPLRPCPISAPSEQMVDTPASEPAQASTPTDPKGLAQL
Assay: Intracellular calcium measurement, antagonist activity at human P2X2/3 receptors (hP2X23 1321N1), Fluo8
Type: cell-based
Details: ratio of column 4) hP2X2/3 to column 3) hP2X3, 1321N1
recordedMetric: hP2X23/hP2X3* Selectivity (1321N1)

Worked examples, 3 compounds total:
molecule	hP2X23/hP2X3* Selectivity (1321N1)
CC(C)N1Cc2c(n(CC(=O)Nc3ccc(F)cn3)c3cc(C(=O)NC(C)(C)C)nn3c2=O)C1=O	>17
COC[C@H](C)N1Cc2c(n(CC(=O)Nc3ccc(F)cn3)c3cc(C(=O)N4CCOCC4)nn3c2=O)C1=O	>1199
CCc1cc2n(CC(=O)Nc3ccc(F)cn3)c3c(c(=O)n2n1)CN(CC(=O)NC(C)C)C3=O	>267

Task: Item under review: CC(C)N1Cc2c(n(CC(=O)Nc3ccc(F)cn3)c3cc(N4CCOCC4)nn3c2=O)C1=O . Reported hP2X23/hP2X3* Selectivity (1321N1)?
Result: >188

Task: Item under review: CC(C)N1Cc2c(n(CC(=O)Nc3ccc(F)cn3)c3cc(NCC(F)F)nn3c2=O)C1=O . Reported hP2X23/hP2X3* Selectivity (1321N1)?
Result: >170

Task: Item under review: Cc1ccc(-c2cc3n(CC(=O)Nc4ccc(F)cn4)c4c(c(=O)n3n2)CN(C(C)C)C4=O)c(C)n1 . Reported hP2X23/hP2X3* Selectivity (1321N1)?
Result: >593

Task: Item under review: CC[C@@H](C)N1Cc2c(n(CC(=O)Nc3ccc(C)cn3)c3cc(C(F)(F)F)nn3c2=O)C1=O . Reported hP2X23/hP2X3* Selectivity (1321N1)?
Result: >6

Task: Item under review: Cc1ccc(NC(=O)Cn2c3c(c(=O)n4nc(C(C)(C)C)cc24)CN([C@@H](C)C(C)C)C3=O)nc1 . Reported hP2X23/hP2X3* Selectivity (1321N1)?
Result: >31

---

The following compounds are shown together with reported hP2X23/hP2X3* Selectivity (1321N1) values.
Target: human P2X2/3 receptors (Homo sapiens, UniProt P56373+Q9UBL9)
Construct: expressed in transfected cells; host or cells: human astrocytoma 1321N1 (1312N1 [sic])
Sequence (P56373 1-397): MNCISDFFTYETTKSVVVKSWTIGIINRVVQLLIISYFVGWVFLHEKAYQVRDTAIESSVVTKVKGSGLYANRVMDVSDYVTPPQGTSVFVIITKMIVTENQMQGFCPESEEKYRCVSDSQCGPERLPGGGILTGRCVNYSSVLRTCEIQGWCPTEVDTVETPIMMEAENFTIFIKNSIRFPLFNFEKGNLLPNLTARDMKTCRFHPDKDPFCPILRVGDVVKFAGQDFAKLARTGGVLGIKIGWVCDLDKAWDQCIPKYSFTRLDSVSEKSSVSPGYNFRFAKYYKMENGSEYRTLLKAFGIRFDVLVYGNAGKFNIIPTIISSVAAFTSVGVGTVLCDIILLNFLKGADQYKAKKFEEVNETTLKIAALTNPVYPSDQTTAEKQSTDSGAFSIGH
Sequence (Q9UBL9 1-471): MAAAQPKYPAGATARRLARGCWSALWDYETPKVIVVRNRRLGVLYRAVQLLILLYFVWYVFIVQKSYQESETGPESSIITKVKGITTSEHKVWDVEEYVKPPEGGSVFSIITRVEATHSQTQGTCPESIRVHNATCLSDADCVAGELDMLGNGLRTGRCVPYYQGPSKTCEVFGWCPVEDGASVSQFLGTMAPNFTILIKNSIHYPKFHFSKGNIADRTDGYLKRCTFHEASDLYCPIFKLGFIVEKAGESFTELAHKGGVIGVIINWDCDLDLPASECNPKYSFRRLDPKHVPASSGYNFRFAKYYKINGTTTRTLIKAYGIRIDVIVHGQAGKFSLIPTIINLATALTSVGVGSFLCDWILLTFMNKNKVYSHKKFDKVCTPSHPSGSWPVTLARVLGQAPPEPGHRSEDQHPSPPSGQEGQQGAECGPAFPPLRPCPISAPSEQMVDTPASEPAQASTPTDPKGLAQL
Test: Intracellular calcium measurement, antagonist activity at human P2X2/3 receptors (hP2X23 1321N1), Fluo8
Format: cell-based
Details: ratio of column 4) hP2X2/3 to column 3) hP2X3, 1321N1

Worked examples, 2 compounds total:
compound	result
CC(C)N1Cc2c(n(CC(=O)Nc3ccc(F)cn3)c3cc(C(=O)N4CCN(C)CC4)nn3c2=O)C1=O	>267
CC(O)c1cc2n(CC(=O)Nc3ccc(F)cn3)c3c(c(=O)n2n1)CN(C(C)C)C3=O (racemic)	>152

Task: Item under review: CCc1cc2n(CC(=O)Nc3ccc(C)cn3)c3c(c(=O)n2n1)CN(CC1CCOC1)C3=O (stereo not drawn) . Reported hP2X23/hP2X3* Selectivity (1321N1)?
Result: >12

---

Target: human P2X2/3 receptors (Homo sapiens, UniProt P56373+Q9UBL9)
Construct: expressed in transfected cells; host or cells: human astrocytoma 1321N1 (1312N1 [sic])
Experiment: Intracellular calcium measurement, antagonist activity at human P2X2/3 receptors (hP2X23 1321N1), Fluo8
Assay type: cell-based
Conditions: column 4); 1321N1 cells, human P2X2/3, Fluo8, agonist ATP at EC50; read-out: 4) hP2X2/3 IC50 [nM] (1321N1)
The following molecules are shown together with reported IC50 values.

molecule	result
CNC(=O)c1cc2n(CC(=O)Nc3ccc(F)cn3)c3c(c(=O)n2n1)CN([C@@H](C)COC)C3=O	> 22500 nM
COC[C@H](C)N1Cc2c(n(CC(=O)Nc3ccc(F)cn3)c3cc(C4CCOCC4)nn3c2=O)C1=O	> 23500 nM
CCc1cc2n(CC(=O)Nc3ccc(C)cn3)c3c(c(=O)n2n1)CN(CC1CCOC1)C3=O (centres unmarked)	> 23000 nM
Cc1ccc(NC(=O)Cn2c3c(c(=O)n4nc(C(F)(F)F)cc24)CN(C(C)C)C3=O)nc1	> 21500 nM
CCc1cc2n(CC(=O)Nc3ccc(F)cn3)c3c(c(=O)n2n1)CN(CC1CCNCC1)C3=O.Cl	> 32000 nM
Cc1ccc(NC(=O)Cn2c3c(c(=O)n4nc(C(C)(C)C)cc24)CN(C2CCC2)C3=O)nc1	8050 nM

Task: Item under review: COC[C@H](C)N1Cc2c(n(CC(=O)Nc3ccc(F)cn3)c3cc(C(C)C)nn3c2=O)C1=O . Reported IC50?
Result: 7550 nM

Task: Item under review: CCc1cc2n(CC(=O)Nc3ccc(Cl)cn3)c3c(c(=O)n2n1)CN(CC1CCOC1)C3=O (centres unmarked) . Reported IC50?
Result: > 19800 nM

Task: Item under review: CC(C)N1Cc2c(n(CC(=O)Nc3ccc(F)cn3)c3cc(C4CCN(C)C4)nn3c2=O)C1=O (racemic) . Reported IC50?
Result: 9200 nM

Task: Item under review: CC(C)(C)c1cc2n(CC(=O)Nc3ccc(F)cn3)c3c(c(=O)n2n1)CN(CC(=O)N1CCCC1)C3=O . Reported IC50?
Result: > 21000 nM

Task: Item under review: CCc1cc2n(CC(=O)Nc3ccc(F)cn3)c3c(c(=O)n2n1)CN(C1CCN(C(=O)NC(C)C)C1)C3=O (racemic) . Reported IC50?
Result: > 32000 nM
